This collection of values is drawn from patent US20240309087A1.

Molecular target: T1, human CD112R on Jurkat CD112R effector cells (human, UniProt Q6DKI7 1-326)
T1 sequence (looked up): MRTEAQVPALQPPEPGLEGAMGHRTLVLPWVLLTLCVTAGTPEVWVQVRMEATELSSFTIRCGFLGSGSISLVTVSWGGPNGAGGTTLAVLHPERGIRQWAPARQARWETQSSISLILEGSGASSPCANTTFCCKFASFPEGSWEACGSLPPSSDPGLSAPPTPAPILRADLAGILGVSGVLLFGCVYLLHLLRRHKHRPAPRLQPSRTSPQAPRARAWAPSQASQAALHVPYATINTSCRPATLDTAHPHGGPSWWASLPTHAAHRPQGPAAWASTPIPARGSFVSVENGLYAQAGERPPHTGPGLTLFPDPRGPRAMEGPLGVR
Test: cell-based or functional assay
PROPERTY LABEL: Relative activity (%), EC50 Ref/EC50 antibody
Kindly provide the numeric value in % only, without the unit symbol.

Here are 2 binders together with their reported answers.
# Relative activity (%), EC50 Ref/EC50 antibody lookup, item Chi-70 (antibody, V domains shown, chimeric) VH: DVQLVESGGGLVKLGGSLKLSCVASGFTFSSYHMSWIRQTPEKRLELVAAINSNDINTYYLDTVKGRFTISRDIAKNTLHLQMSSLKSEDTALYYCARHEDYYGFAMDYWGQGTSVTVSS VL: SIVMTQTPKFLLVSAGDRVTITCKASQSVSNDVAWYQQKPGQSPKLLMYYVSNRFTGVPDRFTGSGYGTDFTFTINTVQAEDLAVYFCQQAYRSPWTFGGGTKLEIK 1870

# Relative activity (%), EC50 Ref/EC50 antibody lookup, item Chi-63 (antibody, V domains shown, chimeric) VH: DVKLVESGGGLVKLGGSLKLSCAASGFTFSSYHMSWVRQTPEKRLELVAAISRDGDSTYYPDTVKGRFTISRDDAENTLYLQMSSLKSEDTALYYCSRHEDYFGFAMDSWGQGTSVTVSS VL: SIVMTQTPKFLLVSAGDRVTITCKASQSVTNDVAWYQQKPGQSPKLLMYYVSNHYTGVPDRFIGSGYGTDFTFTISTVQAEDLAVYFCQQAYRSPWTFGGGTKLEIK 1490

Moving on to the next binder.
# Relative activity (%), EC50 Ref/EC50 antibody lookup, item Chi-69 (antibody, V domains shown, chimeric) VH: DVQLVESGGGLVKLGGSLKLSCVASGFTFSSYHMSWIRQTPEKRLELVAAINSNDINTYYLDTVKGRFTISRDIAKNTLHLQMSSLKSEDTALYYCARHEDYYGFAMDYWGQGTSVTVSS VL: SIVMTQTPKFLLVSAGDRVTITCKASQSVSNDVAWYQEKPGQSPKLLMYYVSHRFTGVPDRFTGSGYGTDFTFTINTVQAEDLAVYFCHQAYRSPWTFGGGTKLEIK 1390
